Give pIC50 for every item shown.
Target: Saccharomyces cerevisiae α-glucosidase (Saccharomyces cerevisiae, UniProt P53341)
Construct: purchased Shanghai Yuanye Biotechnology Co., Shanghai, China Lot No. M23HS178879 (catalogue number not given)
Sequence (P53341 whole entry): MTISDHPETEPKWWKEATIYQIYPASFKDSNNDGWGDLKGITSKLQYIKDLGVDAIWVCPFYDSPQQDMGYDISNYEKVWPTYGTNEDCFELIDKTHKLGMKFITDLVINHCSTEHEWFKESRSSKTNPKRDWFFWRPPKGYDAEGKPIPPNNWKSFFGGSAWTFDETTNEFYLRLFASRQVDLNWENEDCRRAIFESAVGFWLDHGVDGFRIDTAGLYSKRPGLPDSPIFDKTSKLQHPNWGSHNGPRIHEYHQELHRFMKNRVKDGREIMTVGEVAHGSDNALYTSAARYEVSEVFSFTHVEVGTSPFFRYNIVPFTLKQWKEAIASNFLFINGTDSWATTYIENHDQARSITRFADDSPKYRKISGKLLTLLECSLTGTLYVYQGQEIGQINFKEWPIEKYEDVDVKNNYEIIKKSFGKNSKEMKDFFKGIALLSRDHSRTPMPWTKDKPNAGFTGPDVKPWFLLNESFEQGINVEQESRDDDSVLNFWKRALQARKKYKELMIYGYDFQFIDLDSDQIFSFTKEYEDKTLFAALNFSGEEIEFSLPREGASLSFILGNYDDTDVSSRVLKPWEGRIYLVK
Test: biochemical
Conditions: α-glucosidase 0.2 U/mL, 5 mM pNPG, PBS pH 6.8, 37 °C; read-out: IC50
Answers are plain numbers, as −log10 of the molar value.

| molecule | recorded-metric | readout-value |
| --- | --- | --- |
| COc1cc(-c2oc3cc(O)cc(O)c3c(=O)c2OC2OC(CO)C(O)C(O)C2O)ccc1O (centres unmarked) [C14, isorhamnetin-3-O-glucoside] | pIC50 | 3.64 |

Turning to the following molecule.
# input Please tell me: pIC50 of COc1ccc2c(c1OC)OC1c3ccc(O[C@@H]4O[C@H](CO)[C@@H](O)[C@H](O)[C@H]4O)cc3OCC21 (some centres unmarked) [C19, astrapterocarpan-3-O-glucoside] , system Saccharomyces cerevisiae α-glucosidase (Saccharomyces cerevisiae, UniProt P53341)?
# output 3.46

Source of measurements: paper PMC12114633
